The reported numbers originate from patent US20240076389A1.

Target: T1, human AXL expressed on the cell surface of tumor cell lines (human, UniProt P30530 26-894)
T1 sequence (looked up): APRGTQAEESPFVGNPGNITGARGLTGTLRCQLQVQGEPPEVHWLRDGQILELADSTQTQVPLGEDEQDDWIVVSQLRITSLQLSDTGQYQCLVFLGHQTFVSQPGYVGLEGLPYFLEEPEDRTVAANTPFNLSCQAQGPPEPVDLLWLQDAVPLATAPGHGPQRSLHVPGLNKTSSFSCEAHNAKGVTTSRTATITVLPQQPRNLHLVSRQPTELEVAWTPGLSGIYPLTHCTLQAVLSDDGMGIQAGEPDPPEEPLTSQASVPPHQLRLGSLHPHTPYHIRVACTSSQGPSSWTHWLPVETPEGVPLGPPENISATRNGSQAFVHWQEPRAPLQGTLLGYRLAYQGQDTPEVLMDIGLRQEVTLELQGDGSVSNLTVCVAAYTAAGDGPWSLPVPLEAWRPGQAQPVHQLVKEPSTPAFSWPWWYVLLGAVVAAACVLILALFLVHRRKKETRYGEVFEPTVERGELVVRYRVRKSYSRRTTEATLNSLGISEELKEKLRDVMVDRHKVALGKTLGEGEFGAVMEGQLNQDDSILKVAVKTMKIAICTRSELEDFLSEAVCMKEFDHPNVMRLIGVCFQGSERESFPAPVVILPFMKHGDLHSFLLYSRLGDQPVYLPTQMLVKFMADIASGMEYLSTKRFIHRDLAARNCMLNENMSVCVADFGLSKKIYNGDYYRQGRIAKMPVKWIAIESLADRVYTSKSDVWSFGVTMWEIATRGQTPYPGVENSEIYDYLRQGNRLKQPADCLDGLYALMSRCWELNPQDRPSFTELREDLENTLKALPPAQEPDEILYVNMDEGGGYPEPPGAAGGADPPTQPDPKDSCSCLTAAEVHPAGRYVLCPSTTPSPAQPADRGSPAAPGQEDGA
Assay: cell-based or functional assay
Catalogue of binders with associated IC50 of growth inhibition (CellTiterGlo, 5 days) of NCI-H292 cells, -Gas6
# number only, unit nM dropped from output

Consider the reported IC50 of growth inhibition (CellTiterGlo, 5 days) of NCI-H292 cells, -Gas6 for these binders:
hFc-F111-5E9-DM1 (antibody, human IgG1, kappa, V domains shown, DM1 through SMCC linker on lysine residues; sites not given) VH: QIQLVQSGPELKKPGETVKISCKASGYTFTKYGMNWVKQAPGKGLKWMGWINTYTGEPTYADDFKGRFAFSLETSASTAYLQINNLTTEDMVTYFCAKGGYYSNPIYPMDYWGQGTSVTVSS VL: DIQMTQTTSSLSASLGDRVTISCRASQDINNYLNWYQQKPDGTVKLLIYYISRLHSGVPSRFSGSGSGTDYSLTISNLELEDVATYFCQQGNTLPFTFGSGTKLEIKR | 0.084
hFc-F107-7H5-DM1 (antibody, human IgG1, kappa, V domains shown, DM1 through SMCC linker on lysine residues; sites not given) VH: QVQLQQPGAELVKPGASVKLSCKASGYTFTSYWINWVKQRPGQGLEWIGNIYPDSSSTNYNEKFKSKATLTVDKSSTTAYIQFSSLTSEDSAVYYCTRDTYGGSPDYWGQGTTLTVSS VL: DIVMSQSPSSLAVSAGEKVTMSCKSSQSLLNSRTRKIYLAWYQQKPGQSPKLLIYWASTRQSGVPDRFTGSGSGTDFTLTISSVQAEDLAVYYCKQSYNLWTFGGGTKLEIKR | 0.014

Attention now shifts to the item below.
Find the measured IC50 of growth inhibition (CellTiterGlo, 5 days) of NCI-H292 cells, -Gas6 of mIgG-F149-4G4-DM1 (antibody, V domains shown, DM1 through SMCC linker on lysine residues of the antibody; sites not given) VH: QIQLVQSGPELKKPGETVKISCKTSGYTFTYYGINWVKQAPGKGLEWMGWINTYLGEPTYADDFKGRFAFSLETSASTAYLQINNLRDEDMATYFCTRGTMSYSFDYWGQGTALTVSS VL: QNVLTQSPAIMSASPGEEVTMTCRASSSVSSSYLHWYQQKSGASPKLWIYSTSKLASGVPARFSGSGSGTSYSLTISSVEAEDAATYYCHQYSGDPLTFGSGTKLEVK and report it.
0.015
